Each entry below lists one item and its recorded Luciferase assay (EC50) value.
Molecular target: human CD28 (human, UniProt P10747 19-220)
Experiment: cell-based or functional assay
Unit nM implied. Number only.

Field: example entries. Status: answers known.
# binder, Luciferase assay (EC50) / nM
rows = [
    ("1h-99-297 (other) VH: EVQLLESGGGLVQPGGSLRLSCAASGFTFDSANMSWARQAPGKGLEWVSWIEAIGVQTFYADSVKGRFTISRDNSKNTLYLQMNSLRAEDTAVYYCAKSPFGPLYGFDYRGQGTLVTVSS", 6),
    ("1h-79-809 (other) VL: DIQMTQSPSSLSASVGDRVTITCRASQAIGHSLGWYQQKPGKAPKLLVYWASTLQSGVPSRFSGSGSGTDFTLTISSLQPEDFATYYCQQMLRTPFMFGQGTKVEIKR", 592),
    ("1h-239-829 (other) VL: DIQMTQSPSSLSASVGDRVTITCRASQSIYPFLEWYQQKPGKAPKLLIYFSSRLASGVPSRFSGSGSGTDFTLTISSLQPEDFATYYCLQNVTNPATFSQGTKVEIKR", 10),
]

[Q] Sample 1h-39 (other) VL: DIQMTQSPSSLSASVGDRVTITCRASQYIGTALHWYQQKPGKAPRLLIYLSSNLQSGVPSRFSGSGSGTDFTLTISSLQPEDFATYYCQQSALNPYTFGQGTKVEIKR — what was its Luciferase assay (EC50)?
[A] 1300
